Test: Determination of powder density (bulk density, tapped density)
Format: physicochemical
Conditions: 1250 taps
quantity: Powder density, TD (tapped density)
Answer with the figure and its unit, nothing else.

See these solved cases before continuing.
[[record]]
compound = "CCN(C(=O)c1c([O-])c2c(Cl)cccc2n(C)c1=O)c1ccccc1.[Na+] [Laquinimod Sodium prepared according to Example 1 (batch C)]"
test_value = "0.362 g/ml"

[[record]]
compound = "CCN(C(=O)c1c([O-])c2c(Cl)cccc2n(C)c1=O)c1ccccc1.[Na+] [Re-acrystallized product]"
test_value = "0.758 g/ml"

[[record]]
compound = "CCN(C(=O)c1c([O-])c2c(Cl)cccc2n(C)c1=O)c1ccccc1.[Na+] [Recrystallized product (Example 14)]"
test_value = "0.429 g/ml"


Each compound below has a recorded value; state its Powder density, TD (tapped density).
1. CCN(C(=O)c1c([O-])c2c(Cl)cccc2n(C)c1=O)c1ccccc1.[Na+] [Laquinimod Sodium prepared according to Example 1 (batch A)]
2. CCN(C(=O)c1c([O-])c2c(Cl)cccc2n(C)c1=O)c1ccccc1.[Na+] [Laquinimod Sodium prepared according to Example 1 (batch B)]

Output line:
1. 0.347 g/ml
2. 0.452 g/ml

* * *

Test: Determination of powder density (bulk density, tapped density)
Type: physicochemical
Conditions: loose, uncompacted powder
Parameter threshold = 0.2 g/ml. Response is rule met when Powder density, BD (bulk density) meets or exceeds it, else rule not met.

Some solved cases for reference:
[[record]]
compound = "CCN(C(=O)c1c([O-])c2c(Cl)cccc2n(C)c1=O)c1ccccc1.[Na+] [Laquinimod Sodium prepared according to Example 1 (batch A)]"
group_label = "rule not met"

[[record]]
compound = "CCN(C(=O)c1c([O-])c2c(Cl)cccc2n(C)c1=O)c1ccccc1.[Na+] [Recrystallized product (Example 14)]"
group_label = "rule met"

[[record]]
compound = "CCN(C(=O)c1c([O-])c2c(Cl)cccc2n(C)c1=O)c1ccccc1.[Na+] [Laquinimod Sodium prepared according to Example 1 (batch C)]"
group_label = "rule not met"

[[record]]
compound = "CCN(C(=O)c1c([O-])c2c(Cl)cccc2n(C)c1=O)c1ccccc1.[Na+] [Laquinimod Sodium prepared according to Example 1 (batch B)]"
group_label = "rule not met"


Pending compound:
Input line: Has CCN(C(=O)c1c([O-])c2c(Cl)cccc2n(C)c1=O)c1ccccc1.[Na+] [Re-acrystallized product] a recorded Powder density, BD (bulk density) greater than or equal to 0.2 g/ml?
Output line: rule met

* * *

Experiment: Particle size distribution by Malvern laser diffraction (Mastersizer S)
Format: physicochemical
Conditions: size below which 10% by volume of the population is found
Kindly apply the following: Criterion met if Particle size distribution by Malvern, d(0.1) is less than 4 micron, Criterion not met in every other case.

[[record]]
molecule = "CCN(C(=O)c1c([O-])c2c(Cl)cccc2n(C)c1=O)c1ccccc1.[Na+] [Laquinimod Sodium prepared according to Example 1 (batch C)]"
group_label = "Criterion met"


Input line: Please check: Particle size distribution by Malvern, d(0.1) for CCN(C(=O)c1c([O-])c2c(Cl)cccc2n(C)c1=O)c1ccccc1.[Na+] [Re-acrystallized product] , strictly under 4 micron or not?
Output line: Criterion not met

Input line: # strict comparison: is reported Particle size distribution by Malvern, d(0.1) < 4 micron? input = CCN(C(=O)c1c([O-])c2c(Cl)cccc2n(C)c1=O)c1ccccc1.[Na+] [Laquinimod Sodium prepared according to Example 1 (batch B)]
Output line: Criterion met

Input line: Quick check: Particle size distribution by Malvern, d(0.1) of CCN(C(=O)c1c([O-])c2c(Cl)cccc2n(C)c1=O)c1ccccc1.[Na+] [Recrystallized product (Example 16)] under 4 micron?
Output line: Criterion not met

Input line: Please let me know if CCN(C(=O)c1c([O-])c2c(Cl)cccc2n(C)c1=O)c1ccccc1.[Na+] [Laquinimod Sodium prepared according to Example 1 (batch A)] shows Particle size distribution by Malvern, d(0.1) below 4 micron.
Output line: Criterion met

Input line: hey, is Particle size distribution by Malvern, d(0.1) for CCN(C(=O)c1c([O-])c2c(Cl)cccc2n(C)c1=O)c1ccccc1.[Na+] [Recrystallized product (Example 14)] lower than 4 micron or not?
Output line: Criterion met

Input line: Quick check: does CCN(C(=O)c1c([O-])c2c(Cl)cccc2n(C)c1=O)c1ccccc1.[Na+] [Recrystallized product (Example 15)] have Particle size distribution by Malvern, d(0.1) under 4 micron?
Output line: Criterion not met

* * *

Assay: Particle size distribution by Malvern laser diffraction (Mastersizer S)
Format: physicochemical
Details: size below which 90% by volume of the population is found
Lab note: compare Particle size distribution by Malvern, d(0.9) with 40 micron, writing criterion met if less and criterion not met if equal or more.

[[record]]
molecule = "CCN(C(=O)c1c([O-])c2c(Cl)cccc2n(C)c1=O)c1ccccc1.[Na+] [Re-acrystallized product]"
group_label = "criterion not met"

[[record]]
molecule = "CCN(C(=O)c1c([O-])c2c(Cl)cccc2n(C)c1=O)c1ccccc1.[Na+] [Laquinimod Sodium prepared according to Example 1 (batch B)]"
group_label = "criterion met"

[[record]]
molecule = "CCN(C(=O)c1c([O-])c2c(Cl)cccc2n(C)c1=O)c1ccccc1.[Na+] [Laquinimod Sodium prepared according to Example 1 (batch C)]"
group_label = "criterion met"


Input line: Lab note: Particle size distribution by Malvern, d(0.9) threshold 40 micron. Does this molecule come in strictly under it? CCN(C(=O)c1c([O-])c2c(Cl)cccc2n(C)c1=O)c1ccccc1.[Na+] [Recrystallized product (Example 14)]
Output line: criterion not met

Input line: Say whether its Particle size distribution by Malvern, d(0.9) is strictly beneath 40 micron. Entry: CCN(C(=O)c1c([O-])c2c(Cl)cccc2n(C)c1=O)c1ccccc1.[Na+] [Laquinimod Sodium prepared according to Example 1 (batch A)]
Output line: criterion met

Input line: Is Particle size distribution by Malvern, d(0.9) strictly under 40 micron for the entry CCN(C(=O)c1c([O-])c2c(Cl)cccc2n(C)c1=O)c1ccccc1.[Na+] [Recrystallized product (Example 15)] ?
Output line: criterion not met

Input line: Find out if reported Particle size distribution by Malvern, d(0.9) for CCN(C(=O)c1c([O-])c2c(Cl)cccc2n(C)c1=O)c1ccccc1.[Na+] [Recrystallized product (Example 16)] is less than 40 micron
Output line: criterion not met

* * *

Please provide measured Particle size distribution by Malvern, d(0.5) for the entries that follow.
Assay: Particle size distribution by Malvern laser diffraction (Mastersizer S)
Assay type: physicochemical
Details: size below which 50% by volume of the population is found
Give bare numbers, in micron.

Answered cases to consult:
[[record]]
compound = "CCN(C(=O)c1c([O-])c2c(Cl)cccc2n(C)c1=O)c1ccccc1.[Na+] [Laquinimod Sodium prepared according to Example 1 (batch C)]"
unit_info = "micron"
test_value = 5.9

[[record]]
compound = "CCN(C(=O)c1c([O-])c2c(Cl)cccc2n(C)c1=O)c1ccccc1.[Na+] [Re-acrystallized product]"
unit_info = "micron"
test_value = 51.1

[[record]]
compound = "CCN(C(=O)c1c([O-])c2c(Cl)cccc2n(C)c1=O)c1ccccc1.[Na+] [Recrystallized product (Example 16)]"
unit_info = "micron"
test_value = 65.5

[[record]]
compound = "CCN(C(=O)c1c([O-])c2c(Cl)cccc2n(C)c1=O)c1ccccc1.[Na+] [Recrystallized product (Example 14)]"
unit_info = "micron"
test_value = 15.7

[[record]]
compound = "CCN(C(=O)c1c([O-])c2c(Cl)cccc2n(C)c1=O)c1ccccc1.[Na+] [Recrystallized product (Example 15)]"
unit_info = "micron"
test_value = 21.2

[[record]]
compound = "CCN(C(=O)c1c([O-])c2c(Cl)cccc2n(C)c1=O)c1ccccc1.[Na+] [Laquinimod Sodium prepared according to Example 1 (batch A)]"
unit_info = "micron"
test_value = 7.1


Read the next record carefully.
Input line: Please supply the value of reported Particle size distribution by Malvern, d(0.5) for the item CCN(C(=O)c1c([O-])c2c(Cl)cccc2n(C)c1=O)c1ccccc1.[Na+] [Laquinimod Sodium prepared according to Example 1 (batch B)]
Output line: 10.8

Values from patent US20070088050A1
